# System name: T1, AFP158/HLA-A*02:01 complex (human)
# T1 construct: biotinylated on the BSP by BirA for ELISA and panning; also called biotinylated AFP158/HLA-A*02:01 complex; Bio-AFP158
# Protocol text: SPR, scFv-mIgG2aFc from supernatant captured, complex as analyte
Value type: koff (s⁻¹)
Respond numerically; units are s⁻¹ and should not be typed.

Binder: AS170036 VL1VH1 scFv-mIgG2aFc (Fc fusion, not shown: a dimerising Fc or GST, Humanized) QSALTQPRSVSGSPGQSVTISCAGTSSDVGSENYVSWYQQHPGKAPKLMIYQVNKRASGVPDRFSGSKSGNTASLTISGLQAEDEADYYCASYRSSDHNIVFGGGTKLTVLGGGGSGGGGSGGGGSEVQLVESGGGLVQPGGSLRLSCAASGFTFSSYAMSWVRQAPGKGLEWVSTINSGTGSPYYADSVKGRFTISRDNSKNTLYLQMNSLRAEDTAVYYCAKNFFDGSWFLGPPAMDYWGQGTLVTVSS
Measurement: 0.062

Query binder follows.
Given the binder AS170036 VL1VH2 scFv-mIgG2aFc (Fc fusion, not shown: a dimerising Fc or GST) scFv: QSALTQPRSVSGSPGQSVTISCAGTSSDVGSENYVSWYQQHPGKAPKLMIYQVNKRASGVPDRFSGSKSGNTASLTISGLQAEDEADYYCASYRSSDHNIVFGGGTKLTVLGGGGSGGGGSGGGGSEVQLVESGGGLVQPGGSLRLSCTASGFTFSSYAMSWVRQAPGKGLEWVSTINSGTGSPYYADSVKGRFTISRDNSKNTLYLQMNSLRAEDTAMYYCAKNFFDGSWFLGPPAMDYWGQGTLVTVSS , what is its reported koff? 0.071
